Here, each record is paired with measured pIC50 data.
Target: human metabotropic Glutamate 4 receptor (mGluR4) (Homo sapiens (Human), UniProt Q14833)
Sequence (Q14833 33-912): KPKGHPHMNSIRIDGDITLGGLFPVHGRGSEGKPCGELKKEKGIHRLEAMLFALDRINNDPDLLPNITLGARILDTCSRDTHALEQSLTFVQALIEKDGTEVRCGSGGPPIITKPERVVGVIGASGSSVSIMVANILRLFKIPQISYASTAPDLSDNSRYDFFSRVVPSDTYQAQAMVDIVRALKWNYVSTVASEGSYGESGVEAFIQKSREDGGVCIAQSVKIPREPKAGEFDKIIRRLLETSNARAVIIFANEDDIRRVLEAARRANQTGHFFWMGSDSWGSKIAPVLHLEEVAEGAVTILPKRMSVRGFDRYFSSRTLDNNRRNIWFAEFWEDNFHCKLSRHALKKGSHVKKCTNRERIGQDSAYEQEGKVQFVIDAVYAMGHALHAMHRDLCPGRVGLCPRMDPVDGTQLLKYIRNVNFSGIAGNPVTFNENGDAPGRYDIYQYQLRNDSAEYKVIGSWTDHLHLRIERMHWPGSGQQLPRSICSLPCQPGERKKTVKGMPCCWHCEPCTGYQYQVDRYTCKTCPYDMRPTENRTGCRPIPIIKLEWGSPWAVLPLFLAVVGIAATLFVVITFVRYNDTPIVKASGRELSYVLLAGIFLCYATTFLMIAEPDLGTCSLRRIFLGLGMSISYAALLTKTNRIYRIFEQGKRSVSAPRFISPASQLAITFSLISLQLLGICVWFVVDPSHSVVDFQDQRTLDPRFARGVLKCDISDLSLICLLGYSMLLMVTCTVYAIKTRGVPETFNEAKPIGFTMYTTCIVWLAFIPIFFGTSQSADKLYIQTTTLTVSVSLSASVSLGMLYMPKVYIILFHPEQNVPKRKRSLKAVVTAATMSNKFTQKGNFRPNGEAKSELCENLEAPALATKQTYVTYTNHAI
Test: Assay A: in vitro testing of mGluR4 potency (glutamate-induced cAMP lowering, HTRF cAMP)
Details: HEK293 cells overexpressing human mGluR4; 10 uM L-glutamic acid, 1 uM forskolin; compounds of the present invention
Description: A. In Vitro Testing of mGluR4 Potency The in vitro activity of the compounds according to the invention may be investigated as follows: The HEK293 cell overexpressing the human metabotropic Glutamate 4 receptor are thawed at 37° C. and immediately diluted with cell culture medium. […] The emission at 615 nm and 665 nm (Excitation wavelength: 320 nm) are measured on the EnVision™ reader (Perkin Elmer). The ratio between the emission at 665 nm and 615 is calculated by the reader. […]
pIC50: −log10 of the molar value.
REPORTED PROPERTY: pIC50

MOLECULE	STUDY TARGET	NUMERIC VALUE
Cc1cnc(C(=O)N[C@H](c2nc3cc(Cl)c(F)cc3n2C)C2CC2)cn1	human metabotropic Glutamate 4 receptor (mGluR4) (Homo sapiens (Human), UniProt Q14833)	7.72
Cc1cnc(C(=O)N[C@H](c2nc3cc(F)ccc3n2C(C)C)C2CC2)cn1	human metabotropic Glutamate 4 receptor (mGluR4) (Homo sapiens (Human), UniProt Q14833)	8.40
CO[C@H](C)[C@H](NC(=O)c1cnc(C)cn1)c1nc2cc(C(F)(F)F)ccc2n1C	human metabotropic Glutamate 4 receptor (mGluR4) (Homo sapiens (Human), UniProt Q14833)	8.22
CCn1c([C@@H](NC(=O)c2cnc(C)cn2)C(C)(C)O)nc2cc(Cl)ccc21	human metabotropic Glutamate 4 receptor (mGluR4) (Homo sapiens (Human), UniProt Q14833)	7.85
Cc1cnc(C(=O)NC(c2nc3cc(OC(F)(F)F)ccc3n2C)C2CCCOC2)cn1 (single isomer, unassigned)	human metabotropic Glutamate 4 receptor (mGluR4) (Homo sapiens (Human), UniProt Q14833)	7.60
Cc1cnc(C(=O)N[C@H](c2nc3cc(F)ccc3n2C)C(C)C)cn1	human metabotropic Glutamate 4 receptor (mGluR4) (Homo sapiens (Human), UniProt Q14833)	7.72
CCc1c(Br)ccc2c1nc([C@@H](NC(=O)c1cnc(C)cn1)C(C)(C)O)n2C	human metabotropic Glutamate 4 receptor (mGluR4) (Homo sapiens (Human), UniProt Q14833)	8.22
Cc1cnc(C(=O)N[C@H](c2nc3ccc(C(F)(F)F)cc3n2CC(F)F)C2CC2)cn1	human metabotropic Glutamate 4 receptor (mGluR4) (Homo sapiens (Human), UniProt Q14833)	8.52
Cc1cnc(C(=O)NC(c2nc3cc(C(F)(F)F)ccc3n2CC(F)F)C2CCOC2)cn1 (single isomer, unassigned)	human metabotropic Glutamate 4 receptor (mGluR4) (Homo sapiens (Human), UniProt Q14833)	7.51
COCCn1c([C@@H](NC(=O)c2cnc(C)cn2)C2CC2)nc2cc(OC(F)(F)F)ccc21	human metabotropic Glutamate 4 receptor (mGluR4) (Homo sapiens (Human), UniProt Q14833)	8.70
Cc1cnc(C(=O)N[C@H](c2nc3cc(F)ccc3n2C(C)C)[C@H]2CCOC2)cn1	human metabotropic Glutamate 4 receptor (mGluR4) (Homo sapiens (Human), UniProt Q14833)	7.59
COCCCn1c([C@@H](NC(=O)c2cnc(C)cn2)[C@@H](C)OC)nc2cc(OC(F)(F)F)ccc21	human metabotropic Glutamate 4 receptor (mGluR4) (Homo sapiens (Human), UniProt Q14833)	7.89
Cc1cnc(C(=O)N[C@H](c2nc3cc(Cl)ccc3n2C2CC2)C2CC2)cn1	human metabotropic Glutamate 4 receptor (mGluR4) (Homo sapiens (Human), UniProt Q14833)	8.05
COCCn1c([C@@H](NC(=O)c2cnc(C(F)F)cn2)C2CC2)nc2cc(F)ccc21	human metabotropic Glutamate 4 receptor (mGluR4) (Homo sapiens (Human), UniProt Q14833)	8.30
CCn1c([C@@H](NC(=O)c2cnc(C)cn2)[C@]2(O)CCCOC2)nc2cc(C(F)(F)F)ccc21	human metabotropic Glutamate 4 receptor (mGluR4) (Homo sapiens (Human), UniProt Q14833)	8.52
O=C(N[C@@H](CC1CC1)c1nc2cc(F)c(F)cc2n1C1CC1)c1cnc(C(F)F)cn1	human metabotropic Glutamate 4 receptor (mGluR4) (Homo sapiens (Human), UniProt Q14833)	7.85
